- SUBJECT OF TEST: T1, C3G full-length wild type (human, isoform a, residues 4-1077) (human, UniProt Q13905-1 4-1077)
- T1 sequence (looked up): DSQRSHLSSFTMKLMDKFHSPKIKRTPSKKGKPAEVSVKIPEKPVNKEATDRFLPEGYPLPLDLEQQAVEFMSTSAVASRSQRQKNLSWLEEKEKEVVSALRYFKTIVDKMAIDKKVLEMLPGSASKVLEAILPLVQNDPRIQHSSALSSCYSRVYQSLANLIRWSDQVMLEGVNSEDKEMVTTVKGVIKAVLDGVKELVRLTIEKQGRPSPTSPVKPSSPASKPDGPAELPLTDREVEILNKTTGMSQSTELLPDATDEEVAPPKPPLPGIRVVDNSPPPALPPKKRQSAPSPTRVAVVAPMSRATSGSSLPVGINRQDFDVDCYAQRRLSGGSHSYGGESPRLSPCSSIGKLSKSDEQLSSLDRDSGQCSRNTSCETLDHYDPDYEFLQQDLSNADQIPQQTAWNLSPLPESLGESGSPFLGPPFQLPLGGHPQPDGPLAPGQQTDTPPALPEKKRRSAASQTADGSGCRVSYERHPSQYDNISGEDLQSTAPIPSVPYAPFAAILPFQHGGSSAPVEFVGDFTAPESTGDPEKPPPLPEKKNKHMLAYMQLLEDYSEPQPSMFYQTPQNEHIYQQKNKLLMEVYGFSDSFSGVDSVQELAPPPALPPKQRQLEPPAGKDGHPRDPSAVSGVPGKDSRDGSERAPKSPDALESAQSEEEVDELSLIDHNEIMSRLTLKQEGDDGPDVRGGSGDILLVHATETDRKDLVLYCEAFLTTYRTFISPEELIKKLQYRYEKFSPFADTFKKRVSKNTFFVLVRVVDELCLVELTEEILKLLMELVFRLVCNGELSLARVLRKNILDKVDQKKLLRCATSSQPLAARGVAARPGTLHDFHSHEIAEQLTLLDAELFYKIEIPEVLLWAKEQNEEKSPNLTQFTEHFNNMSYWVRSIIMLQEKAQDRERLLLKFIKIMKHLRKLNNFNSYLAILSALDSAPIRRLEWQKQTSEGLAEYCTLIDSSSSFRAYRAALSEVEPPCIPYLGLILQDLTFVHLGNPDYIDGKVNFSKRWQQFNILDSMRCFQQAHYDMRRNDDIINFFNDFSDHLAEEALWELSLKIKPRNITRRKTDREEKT
- METHOD SUMMARY: cell-based or functional assay
Measured AC50 of the dose-response activation of the GEF activity of C3G (1 µM) on Rap1b:mant-dGDP values are reported for all entries that follow.
I only need the number, in µM, no unit after it.

Guide cases for AC50 of the dose-response activation of the GEF activity of C3G (1 µM) on Rap1b:mant-dGDP, answers given:
>>> test_value("CrkII (human) (natural protein, UniProt P46108-1 1-304, looked up) MAGNFDSEERSSWYWGRLSRQEAVALLQGQRHGVFLVRDSSTSPGDYVLSVSENSRVSHYIINSSGPRPPVPPSPAQPPPGVSPSRLRIGDQEFDSLPALLEFYKIHYLDTTTLIEPVSRSRQGSGVILRQEEAEYVRALFDFNGNDEEDLPFKKGDILRIRDKPEEQWWNAEDSEGKRGMIPVPYVEKYRPASASVSALIGGNQEGSHPQPLGGPEPGPYAQPSVNTPLPNLQNGPIYARVIQKRVPNAYDKTALALEVGELVKVTKINVSGQWEGECNGKRGHFPFTHVRLLDQQNPDEDFS")
65.7
>>> test_value("CrkL-SH3N (residues 125-182) (domain or fragment, human, UniProt P46109 125-182, looked up, human CrkL, SH3N domain, residues 125-182, in pETEV15b; also called SH3N domain of CrkL; isolated SH3N domain; source: E. coli BL21 (DE3), purified (His-tagged, purified in a similar manner as C3G)) LEYVRTLYDFPGNDAEDLPFKKGEILVIIEKPEEQWWSARNKDGRVGMIPVPYVEKLV")
26.8

Quick check: AC50 of the dose-response activation of the GEF activity of C3G (1 µM) on Rap1b:mant-dGDP of CrkL, full-length (human) (natural protein, UniProt P46109 1-303, looked up, Monomer by sedimentation velocity and DLS (theoretical mass 33.7 kDa); Purification 'in a similar manner' as C3G would include TEV cleavage of the tag; also called Crk-like protein; wild type CrkL; source: E. coli BL21 (DE3), purified (His-tagged, purified in a similar manner as C3G)) MSSARFDSSDRSAWYMGPVSRQEAQTRLQGQRHGMFLVRDSSTCPGDYVLSVSENSRVSHYIINSLPNRRFKIGDQEFDHLPALLEFYKIHYLDTTTLIEPAPRYPSPPMGSVSAPNLPTAEDNLEYVRTLYDFPGNDAEDLPFKKGEILVIIEKPEEQWWSARNKDGRVGMIPVPYVEKLVRSSPHGKHGNRNSNSYGIPEPAHAYAQPQTTTPLPAVSGSPGAAITPLPSTQNGPVFAKAIQKRVPCAYDKTALALEVGDIVKVTRMNINGQWEGEVNGRKGLFPFTHVKIFDPQNPDENE ?
22.4
